Every entry's value here was drawn from the supplement of paper PMC10567573.

B1: TAF7L (parent)
chain: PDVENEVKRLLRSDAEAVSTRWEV

Variants of: B1
Experiment: protein stability index of a GFP-peptide fusion (GPS, HEK-293T) (PSI 1-6); higher = more stable;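 note: lentivirally expressed fusions sorted by FACS into six bins by GFP to DsRed ratio, PSI derived from sequencing read proportions per bin multiplied by bin number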
Conditions: c terminus: a fixed tail appended
Returns 1 if the recorded protein stability index is greater than or equal to 4, and 0 otherwise.

mutant_designation | label
T20H | 0
W22I | 1
E23Y | 0
E4G | 0
N5W | 0
V18P | 0
D14T | 0
R12N | 0
P1Y | 0
D14P | 0
R12E | 1
N5A | 0
W22P | 1
A17V | 0
V3C | 0
R12C | 0
E16S | 0
T20V | 0
N5L | 0
P1T | 0
K8E | 0
A15R | 0
D2K | 0
S13F | 0
L11R | 1
R21E | 1
R9C | 0
V7I | 0
W22D | 1
N5Q | 0
E23L | 0
R9L | 0
E4Q | 0
D2L | 0
P1D | 0
R21Q | 1
K8Q | 0
E4A | 1
E6H | 0
R21N | 1
E6N | 0
V3S | 0
V24C | 1
V18K | 0
R9F | 0
R21G | 1
E4P | 0
